The origin of these recorded values is patent US20200157194A1.

Exercise: state measured Binding Signal with 300 sec Association for each of the binders provided.
Target: T1, recombinant human GREM1 (hGREM1-His; C-terminal 10His tagged, R&D, #5190-GR) (human, UniProt O60565 25-184)
T1 construct: range 25-184; also called recombinant human GREM1 with a C-terminal decahistidine tag
T1 sequence: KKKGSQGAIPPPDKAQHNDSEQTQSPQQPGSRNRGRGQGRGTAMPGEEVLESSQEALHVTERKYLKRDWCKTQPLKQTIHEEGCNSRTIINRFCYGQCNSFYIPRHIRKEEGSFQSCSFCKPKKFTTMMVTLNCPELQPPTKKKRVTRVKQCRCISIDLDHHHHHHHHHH
Test: BLI Octet, mAb captured, 100 nM GREM1 + 5 uM heparin;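 also: octet Red96 biolayer interferometry at 25 °C, antibodies captured on anti-human IgG Fc biosensors, pH 7.4 HEPES buffer with 0.1 mg/mL BSA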
Give bare numbers, in nm.

Please review the entries below; each comes with its answer.
H4H2892N (antibody, human IgG4, V domains shown, H4H prefix = human IgG4 Fc) VH: QVQLVESGGGVVQPGRSLRLSCAASGFTFSSYGIHWVRQAPGKGLEWVAILWYDGSNKYYADSVKGRFTISRDNSKTTLYLQMNSLRAEDTAVYYCARENYNDLNFDLWGRGTLVTVSS VL: DIQLTQSPSFLSASVGDRVTITCWASQGISSYLAWYQHKPGKAPKLLIYAASTLQSGVPSRFSGSGSGIEFTLTISSLQPEDFATYYCQQLKSYPPWTFGQGTKVEIR
0.49
H4H6270P (antibody, human IgG4, V domains shown, H4H prefix = human IgG4 Fc) VH: QVQLVESGGDVVQPGRSLRLSCAASGFTFSSYGMHWVRQAPGKGLEWVAIIWNDGSNKYYTDSVKGRFTISRDNSKNTLYLQMNGLRAEDTAIYYCARDQDQFDYWGQGTLVTVSS VL: EIVMTQSPATLSVSPGERATLSCRASQSISTNLAWYRQKPGQAPRLLIYDASTRATGIPARFSGSGSGTDFTLTISSLQSEDFAVYYCQQYSNWPPYTFGQGTKLEIK
0.33

// moving on: another record for Binding Signal with 300 sec Association
Binding Signal with 300 sec Association for H4H6269P (antibody, human IgG4, V domains shown, H4H prefix = human IgG4 Fc) VH: QVQLQESGPGLVKPSQTLSLTCTVSGGSISSGGYYWTWIRQHPGKGLEWIGYIYYSGSTYYNPSLKSRVTMSVDTSKNQFSLKLSSVTAADTAVYYCARLLDFDYWGQGTLVTVSS VL: AIQMTQSPSSLSASVGDRVTITCRASQGIRNDLGWYQQKPGKAPKLLIYAASSLQSGVPSRFSGSGSGRDFTLTISSLQPEDFASYYCLQDHNYPLTFGGGTKVEIK ?
0.52
